PROTOCOL SUMMARY: recombinant barcode read abundance after kanamycin selection (control-corrected) (log10(CPM+1)); higher = more efficient recombination; sequences stand for … in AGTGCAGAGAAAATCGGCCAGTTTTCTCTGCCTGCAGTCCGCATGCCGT…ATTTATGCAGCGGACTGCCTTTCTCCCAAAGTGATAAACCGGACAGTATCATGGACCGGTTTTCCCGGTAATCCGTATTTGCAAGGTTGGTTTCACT; site = the 11-nt target
Measured recombinant barcode read abundance (log10) by item
READOUT: recombinant barcode read abundance (log10)

RECORD SEQUENCE | RECORDED MEASUREMENT
GGACACCCTTGGGTTCTAACCTGTTGCCTAA [GGACACCCTAG_LTGcore_CT_RTGcore_TT] (site GGACACCCTAG) (LTG core: CT, RTG core: TT) | 1.19
GCGCGACTCTGGGTTCTAACCTGTTGCTTAG [GCGCGACCTAA_LTGcore_TC_RTGcore_CT] (site GCGCGACCTAA) (LTG core: TC, RTG core: CT) | 0
GGCTCCCGTTGGGTTCTAACCTGTTGCGGAC [GGCTCCCCTCC_LTGcore_GT_RTGcore_GT] (site GGCTCCCCTCC) (LTG core: GT, RTG core: GT) | 0.259
CGCGCCCAGTGGGTTCTAACCTGTTGCGGAG [CGCGCCCCTCC_LTGcore_AG_RTGcore_CT] (site CGCGCCCCTCC) (LTG core: AG, RTG core: CT) | 0.0753
GGTGCCCCTTGGGTTCTAACCTGTTGCCGGA [GGTGCCCCTCG_LTGcore_CT_RTGcore_TC] (site GGTGCCCCTCG) (LTG core: CT, RTG core: TC) | 0.0539
AAACATGCTTGGGTTCTAACCTGTTGCCTTG [AAACATGCTAG_LTGcore_CT_RTGcore_CA] (site AAACATGCTAG) (LTG core: CT, RTG core: CA) | 1.17
CGAGCCCATTGGGTTCTAACCTGTTGCTGAG [CGAGCCCCTCA_LTGcore_AT_RTGcore_CT] (site CGAGCCCCTCA) (LTG core: AT, RTG core: CT) | 0.104
GAGTCCTCATGGGTTCTAACCTGTTGCCTAG [GAGTCCTCTAG_LTGcore_CA_RTGcore_CT] (site GAGTCCTCTAG) (LTG core: CA, RTG core: CT) | 1.08
CATATTACTTGGGTTCTAACCTGTTGCCTCA [CATATTACTAG_LTGcore_CT_RTGcore_TG] (site CATATTACTAG) (LTG core: CT, RTG core: TG) | 0.0517
GGACACCATTGGGTTCTAACCTGTTGCCTAG [GGACACCCTAG_LTGcore_AT_RTGcore_CT] (site GGACACCCTAG) (LTG core: AT, RTG core: CT) | 0.15
AGGCGGTCATGGGTTCTAACCTGTTGCTTAG [AGGCGGTCTAA_LTGcore_CA_RTGcore_CT] (site AGGCGGTCTAA) (LTG core: CA, RTG core: CT) | 0.322
CGCGCCCTTTGGGTTCTAACCTGTTGCGGAA [CGCGCCCCTCC_LTGcore_TT_RTGcore_TT] (site CGCGCCCCTCC) (LTG core: TT, RTG core: TT) | 0.156
ACGGGACTTTGGGTTCTAACCTGTTGCAGAA [ACGGGACCTCT_LTGcore_TT_RTGcore_TT] (site ACGGGACCTCT) (LTG core: TT, RTG core: TT) | 0.0398

###

PROTOCOL SUMMARY: recombinant UMI read abundance after kanamycin selection (control-corrected) (log10(CPM+1)); higher = more efficient recombination; extreme values may be limits of the assay; sequences stand for … in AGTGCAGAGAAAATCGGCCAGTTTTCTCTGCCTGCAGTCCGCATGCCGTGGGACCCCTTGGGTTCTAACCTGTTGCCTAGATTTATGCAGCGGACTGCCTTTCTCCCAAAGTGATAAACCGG…AGGTTGGTTTCACT; site = the 11-nt donor
# maps each entry to its recombinant UMI read abundance (log10)

RECORD SEQUENCE | recombinant UMI read abundance (log10)
CGCACATCATGGACCGGTTTTCCCGGTAATCCGTATTTGCT (site CGCACATCTAG) | 1.02
ACTAGAACATGGACCGGTTTTCCCGGTAATCCGTATTTGAG (site ACGAGAACTCT) | 0.424
CGAGTATCATGGACCGGTTTTCCCGGTAATCCGTATTTGCA (site ACAGTATCTTG) | 2.08
TCGCTGTCATGGACCGGTTTTCCCGGTAATCCGTATTTGTG (site TCGCTGTCTCA) | 0.936
GTCACGGCATGGACCGGTTTTCCCGGTAATCCGTATTTGAA (site GTCACGGCTTT) | 1.2
AGGACGACATGGACCGGTTTTCCCGGTAATCCGTATTTGCT (site AGGAAGACTTG) | 0
CTGGAGACATGGACCGGTTTTCCCGGTAATCCGTATTTGCA (site CTGGAAACTTG) | 2.32

###

PROTOCOL SUMMARY: recombinant barcode read abundance after kanamycin selection (control-corrected) (log10(CPM+1)); higher = more efficient recombination; sequences stand for … in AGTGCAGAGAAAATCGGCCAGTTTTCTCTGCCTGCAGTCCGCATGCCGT…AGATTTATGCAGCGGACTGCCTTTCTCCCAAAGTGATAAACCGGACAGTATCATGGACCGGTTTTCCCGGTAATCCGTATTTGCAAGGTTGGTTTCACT; site = the 11-nt target
Could you label it T if measured recombinant barcode read abundance (log10) is 0.3 or higher, and F otherwise?

RECORD SEQUENCE | DISCRETE LABEL
ACGCGAGCTTGGGTTCTAACCTGTTGCTG (site ACGCGAGCTCC) | F
TACGCTCCTTGGGTTCTAACCTGTTGCCT (site TACGCTCCTAG) | F
CGTTCATCTTGGGTTCTAACCTGTTGCCT (site CGCTCATCTAG) | F
GGATAGCCTTGGGTTCTAACCTGTTGCTT (site GGATGGACTAA) | F
ACTTCGACTTGGGTTCTAACCTGTTGCCT (site ATTTCGACTAG) | F
CGGGCTACTTGGGTTCTAACCTGTTGCCA (site TCCTAATCTAA) | F
CTTTGTGCTTGGGTTCTAACCTGTTGCCT (site CTTAGGGCTAG) | T
TTCGTAGCTTGGGTTCTAACCTGTTGCGT (site TTCGTAGCTAC) | T

###

PROTOCOL SUMMARY: recombinant barcode read abundance after kanamycin selection (control-corrected) (log10(CPM+1)); higher = more efficient recombination; sequences stand for … in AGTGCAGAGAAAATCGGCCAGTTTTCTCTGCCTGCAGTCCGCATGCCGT…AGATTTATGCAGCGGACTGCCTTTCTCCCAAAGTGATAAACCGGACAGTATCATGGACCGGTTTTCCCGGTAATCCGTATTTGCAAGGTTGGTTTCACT; site = the 11-nt target
Readings of recombinant barcode read abundance (log10) for the listed sequences
READOUT: recombinant barcode read abundance (log10)

RECORD SEQUENCE | RECORDED MEASUREMENT
CGTTAGACTTGGGTTCTAACCTGTTGCCT (site CGTGAGACTAG) | 0.147
TCTTGGACTTGGGTTCTAACCTGTTGCTA (site TCTTGGACTAA) | 0.214
TCGCCTACTTGGGTTCTAACCTGTTGCCG (site TCCCCGACTCG) | 0.255
TACGACACTTGGGTTCTAACCTGTTGCCT (site TACGACACTAG) | 1.9
TGCGGGTCTTGGGTTCTAACCTGTTGCCT (site GAGCTTGCTTC) | 0.273
GTGAGGACTTGGGTTCTAACCTGTTGCCT (site ATGAGGACTAG) | 0.739
TAGTAGTCTTGGGTTCTAACCTGTTGCGT (site TAGTAGTCTAA) | 0.509
TAGCCTACTTGGGTTCTAACCTGTTGCGA (site TAGCCTACTAC) | 0.0304
GAGGAACCTTGGGTTCTAACCTGTTGCCT (site GAGGAACCTAG) | 2.12
ACCTACCCTTGGGTTCTAACCTGTTGCGG (site CGAACATCTAA) | 0.169
AGCCTATCTTGGGTTCTAACCTGTTGCCA (site AGCCTATCTTG) | 0.101
ATCGTTGCTTGGGTTCTAACCTGTTGCCT (site CTCGTTGCTAG) | 0.0176
TAGCATACTTGGGTTCTAACCTGTTGCCT (site TAGCATACTCG) | 0.112
GGCAGATCTTGGGTTCTAACCTGTTGCTT (site GGCAGATCTAA) | 0.193
CGGAACTCTTGGGTTCTAACCTGTTGCCT (site CGGAACTCTAG) | 1.85

The measured values listed here are drawn from the supplement of paper PMC11208160.
